# credit: patent EP0908457B1

# Tested on: Cyperus serotinus, Rottb.
# Procedure summary: Preemergence weed control under flooded paddy conditions, CYPSE (Flatsedge); further: meaning of each grade not given here
# Assay type: in vivo
# Experimental conditions: Rate 0.1250 kg/ha, preemergence, rated three to four weeks after treatment
Kindly state herbicidal effect rating, CYPSE for each of the entries shown.
Reply with just the number.

Task item: # returns recorded herbicidal effect rating, CYPSE (system: Cyperus serotinus, Rottb.) for COCCOCCOC(=O)c1nsc2ccc(-n3c(=O)cc(C(F)(F)F)n(C)c3=O)cc12
Reply: 7.0

Task item: Repeat for the following compound: Cn1c(C(F)(F)F)cc(=O)n(-c2ccc3snc(C(C#N)=Cc4ccccc4C#N)c3c2)c1=O
Reply: 2.0

Task item: Next compound: Cn1c(C(F)(F)F)cc(=O)n(-c2ccc3snc(C(Cc4ccccc4)S(C)(=O)=O)c3c2)c1=O (centres unmarked)
Reply: 0.0

Task item: Input C=CCONC(=O)c1nsc2ccc(-n3c(=O)cc(C(F)(F)F)n(C)c3=O)cc12
Reply: 0.0

Task item: Then this compound: Cn1c(C(F)(F)F)cc(=O)n(-c2ccc3snc(C#N)c3c2)c1=O
Reply: 7.5

Task item: Entry Cn1c(C(F)(F)F)cc(=O)n(-c2ccc3snc(COC(=O)Cc4ccccc4)c3c2)c1=O please
Reply: 4.0

Task item: // query: CCCCS(=O)(=O)OCc1nsc2ccc(-n3c(=O)cc(C(F)(F)F)n(C)c3=O)cc12
Reply: 7.0

Task item: What do you get for CCOP(=O)(Cc1nsc2cc(F)c(-n3c(=O)cc(C(F)(F)F)n(C)c3=O)cc12)OCC ?
Reply: 5.0

Task item: Try this compound too: COC(C)c1nsc2ccc(-n3c(=O)cc(C(F)(F)F)n(C)c3=O)cc12 (centres unmarked)
Reply: 8.5

Task item: Field entry: Cn1c(C(F)(F)F)cc(=O)n(-c2ccc3snc(C(C#N)=Cc4cnc[nH]4)c3c2)c1=O
Reply: 0.0

Task item: Next compound up: CCOCN(C(=O)c1nsc2ccc(-n3c(=O)cc(C(F)(F)F)n(C)c3=O)cc12)S(C)(=O)=O
Reply: 7.0

Task item: And the next one, Cn1c(C(F)(F)F)cc(=O)n(-c2ccc3snc(COS(C)(=O)=O)c3c2)c1=O ?
Reply: 5.0

Task item: Note, next up: Cc1cccc(COCc2nsc3ccc(-n4c(=O)cc(C(F)(F)F)n(C)c4=O)cc23)c1
Reply: 0.0

Task item: Query Cn1c(C(F)(F)F)cc(=O)n(-c2ccc3snc(C(=O)NS(=O)(=O)c4ccc(Cl)cc4)c3c2)c1=O next
Reply: 5.0

Task item: For Cc1ccc(OC(C)(C)C(=O)NS(C)(=O)=O)c(-c2nsc3ccc(-n4c(=O)cc(C(F)(F)F)n(C)c4=O)cc23)c1 then?
Reply: 0.0

Task item: Cn1c(C(F)(F)F)cc(=O)n(-c2ccc3snc(COCc4cccc([N+](=O)[O-])c4)c3c2)c1=O , same question.
Reply: 5.0

Task item: Entry to check: Cn1c(C(F)(F)F)cc(=O)n(-c2ccc3snc(COCc4ccc(Cl)c(Cl)c4)c3c2)c1=O
Reply: 4.5

----------
# System: Oryza sativa, (L.) Tebonnet
# Procedure summary: Rice tolerance to post-transplant applications under flooded paddy conditions (Example 187), ORYSAT (Rice, Tebonnet)
# Experimental conditions: Rate 0.2500 kg/ha, rated three to four weeks after treatment
Measurement kind: ORYSAT herbicidal effect rating
// response body must contain only the number

Task item: Bench note: what ORYSAT herbicidal effect rating did Cc1nsc2ccc(-n3c(=O)c(Cl)c(C(F)(F)F)n(C)c3=O)cc12 show?
Reply: 3.0

Task item: What do we get for Cn1c(C(F)(F)F)cc(=O)n(-c2ccc3snc(/C=N/O)c3c2)c1=O ?
Reply: 7.0

Task item: What do you get for C=Cc1nsc2ccc(-n3c(=O)cc(C(F)(F)F)n(C)c3=O)cc12 ?
Reply: 7.0

Task item: Another compound to look at: C#CCn1c(C(F)(F)F)cc(=O)n(-c2ccc3snc(C)c3c2)c1=O
Reply: 4.0

Task item: Next: Cn1c(C(F)(F)F)cc(=O)n(-c2ccc3snc(CS(=O)(=O)CC(=O)O)c3c2)c1=O
Reply: 4.0

Task item: And for Cc1nsc2ccc(-n3c(=O)cc(C(F)(F)F)n(Cc4ccccc4)c3=O)cc12 ?
Reply: 3.0

Task item: Then this compound: Cc1ccc(OCC(=O)NS(=O)(=O)c2sc(C)nc2C)c(-c2nsc3ccc(-n4c(=O)cc(C(F)(F)F)n(C)c4=O)cc23)c1
Reply: 2.0

Task item: Now consider COC(=O)COCc1nsc2ccc(-n3c(=O)cc(C(F)(F)F)n(C)c3=O)cc12 and answer again.
Reply: 0.0
